Experiment: NCI Yeast Anticancer Drug Screen. Data for the mec2-1 strain (AID 157)
Conditions: S. cerevisiae mec2-1 strain, at 50.0 µM, stronger effect = higher value
Method: Growth inhibition of yeast strains with defined genetic alterations is measured as a screen for potential anti-cancer activity. Selected strains with alterations in DNA damage repair or cell cycle control were exposed to compounds and growth inhibition was measured relative to vehicle treated controls. The strain used in this assay is mec2-1
This is part of a sample that, as a whole, favours compounds with a hit. Of some 79,000 tested, about 15% had one in any assay.
I'd appreciate it if you could supply growth inhibition values for the items below.
Report as a plain number; the unit % is understood.

Ask: Fill in: growth inhibition of Cc1ccc(NC(=S)N2CCOCC2)cc1C is ___
Reply: -17.4

Ask: Next entry: CCCC(OC(C)=O)c1ccc2c(c1)OCO2 (configuration not stated)
Reply: 27.5

Ask: Next entry: CC(C)(C)CC1(C)NC(=O)NC1=O (configuration not stated)
Reply: 8.25

Ask: Next entry: CCN(CC)c1ccc2nc3ccc(N=Nc4ccc(N(C)C)cc4)cc3[n+](-c3ccccc3)c2c1
Reply: 52.5

Ask: Next entry: O=C1C=C(c2ccccc2)C(O)(c2ccccc2)C1 (configuration not stated)
Reply: 6.85

Ask: Next entry: C[n+]1c(/C=C\C=C\N2CCCCC2)sc2ccccc21
Reply: 14.6

Ask: Next entry: CN1CCCN(C(c2ccccc2)c2ccc(Br)cc2)CC1 (configuration not stated)
Reply: 1.95

Ask: Next entry: C=CC(C)(C)n1cc(C2=C(O)C(=O)C(c3cn(C(C)(C)C=C)c4ccccc34)=C(O)C2=O)c2ccccc21
Reply: -26.6

Ask: Next entry: COc1nc(Nc2cccc(C(F)(F)F)c2)nc(OC)n1
Reply: -8

Ask: Next entry: N#CC1(O)CCCCC1
Reply: 10.6

Ask: Next entry: C=CC(=O)OC1CCC(C(C)(C)CC)CC1 (configuration not stated)
Reply: 14.1

Ask: Next entry: OC(CBr)CCBr (configuration not stated)
Reply: -31.1

====

experiment: NCI Yeast Anticancer Drug Screen. Data for the sgs1 mgt1 strain (AID 161);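 also: 0% = growth of cultures given vehicle only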; details: S. cerevisiae sgs1 mgt1 strain, at 50.0 µM, stronger effect = higher value
Compounds without any hit were thinned out: in the full panel of roughly 79,000, 15% have a hit. Activity calls are given as the source filed them. Rule as the data show it: active = growth inhibition above about 70%; inactive = the rest.
Parameter Measured: growth inhibition

Ask: Fill in: growth inhibition of CCOc1ccccc1NC(=O)CCl is ___
Reply: 8.6% (inactive)

Ask: Next entry: OC(CBr)CCBr (stereo not drawn)
Reply: -39.6% (inactive)

Ask: Next entry: C=CCC(OC(C)=O)c1ccc(C(C)C)cc1 (stereo not drawn)
Reply: -23.4% (inactive)

Ask: Next entry: O=C(OCc1ccccc1)n1nnc2ccccc21
Reply: 8.55% (inactive)

Ask: Next entry: CC1CC2C3CCC4=CC(=O)CCC4(C)C3CCC2(C)C1(O)C(=O)CO (stereo not drawn)
Reply: 9.1% (inactive)

Ask: Next entry: S=c1nc2[nH]c3ccccc3c2n[nH]1
Reply: -5.65% (inactive)

Ask: Next entry: Cc1c(Cl)cccc1N=C=S
Reply: 15.4% (inactive)

Ask: Next entry: Cc1ccc(NC(=S)N2CCOCC2)cc1C
Reply: 29.6% (inactive)

Ask: Next entry: O=c1cc(C(F)(F)F)[nH]c(=S)[nH]1
Reply: -15.8% (inactive)

Ask: Next entry: CCC(C)C1CCC(O)CC1 (stereo not drawn)
Reply: 9.15% (inactive)

Ask: Next entry: O=C(CCCl)OCCOc1ccccc1
Reply: -15.1% (inactive)

Ask: Next entry: CN(CCCN(C)CCC1CCCCC1)CCC1CCCCC1
Reply: 0.1% (inactive)

Ask: Next entry: O=C1CSc2ccccc2N1
Reply: 32% (inactive)

Ask: Next entry: C=CC(C)(C)n1cc(C2=C(O)C(=O)C(c3cn(C(C)(C)C=C)c4ccccc34)=C(O)C2=O)c2ccccc21
Reply: -2.3% (inactive)

Ask: Next entry: O=C(OCC1CCCO1)c1ccc([N+](=O)[O-])cc1 (stereo not drawn)
Reply: 12.9% (inactive)

Ask: Next entry: CN=S(=O)(OCCCCCOS(=O)(=NC)c1ccc(C)cc1)c1ccc(C)cc1 (stereo not drawn)
Reply: -22.9% (inactive)

Ask: Next entry: CCCCCCCCCCC(=O)CCCCCCCCCC
Reply: 8.1% (inactive)

Ask: Next entry: C1CCc2onc(-c3noc4c3CCCCC4)c2CC1
Reply: -19.1% (inactive)

Ask: Next entry: Nc1nc(Cl)cc(Cl)n1
Reply: 0% (inactive)

Ask: Next entry: NC(=O)N1CCOCC1
Reply: -12.9% (inactive)

Ask: Next entry: C=CC(C)C(C)(C)O (stereo not drawn)
Reply: -1% (inactive)

Ask: Next entry: C#CCSc1nnnn1-c1ccccc1
Reply: 22.2% (inactive)

Ask: Next entry: CC(CCC#N)(CCC#N)C(=O)c1ccccc1
Reply: 25.1% (inactive)

Ask: Next entry: C/C=C/C1OCC(CC)C(CCC)O1 (stereo not drawn)
Reply: 1.85% (inactive)

Ask: Next entry: CN(C)CCOC(=O)Nc1ccc(Cc2ccc(NC(=O)OCCN(C)C)cc2)cc1
Reply: -1.75% (inactive)

Ask: Next entry: CSc1nsc(N)n1
Reply: -4.2% (inactive)

Ask: Next entry: CCOC(=O)CNC(=O)Sc1ccc(C(C)(C)C)cc1
Reply: 84.2% (active)

Ask: Next entry: S=C(NCc1ccccc1)N1CCC(CCCC2CCN(C(=S)NCc3ccccc3)CC2)CC1
Reply: -3.6% (inactive)

Origin of values: PubChem BioAssay (NCI)
